target: furin, P09958; assay: furin cleavage Z-score vs untreated control; higher = more cleavage, active = 3.5 or more, inactive = 1 or less, 8 variable residues between constant flanks; details: 7.5 min;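 also: purified furin at 1:10 enzyme:substrate in 50 mM HEPES pH 7.5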
Sequence (P09958 whole entry): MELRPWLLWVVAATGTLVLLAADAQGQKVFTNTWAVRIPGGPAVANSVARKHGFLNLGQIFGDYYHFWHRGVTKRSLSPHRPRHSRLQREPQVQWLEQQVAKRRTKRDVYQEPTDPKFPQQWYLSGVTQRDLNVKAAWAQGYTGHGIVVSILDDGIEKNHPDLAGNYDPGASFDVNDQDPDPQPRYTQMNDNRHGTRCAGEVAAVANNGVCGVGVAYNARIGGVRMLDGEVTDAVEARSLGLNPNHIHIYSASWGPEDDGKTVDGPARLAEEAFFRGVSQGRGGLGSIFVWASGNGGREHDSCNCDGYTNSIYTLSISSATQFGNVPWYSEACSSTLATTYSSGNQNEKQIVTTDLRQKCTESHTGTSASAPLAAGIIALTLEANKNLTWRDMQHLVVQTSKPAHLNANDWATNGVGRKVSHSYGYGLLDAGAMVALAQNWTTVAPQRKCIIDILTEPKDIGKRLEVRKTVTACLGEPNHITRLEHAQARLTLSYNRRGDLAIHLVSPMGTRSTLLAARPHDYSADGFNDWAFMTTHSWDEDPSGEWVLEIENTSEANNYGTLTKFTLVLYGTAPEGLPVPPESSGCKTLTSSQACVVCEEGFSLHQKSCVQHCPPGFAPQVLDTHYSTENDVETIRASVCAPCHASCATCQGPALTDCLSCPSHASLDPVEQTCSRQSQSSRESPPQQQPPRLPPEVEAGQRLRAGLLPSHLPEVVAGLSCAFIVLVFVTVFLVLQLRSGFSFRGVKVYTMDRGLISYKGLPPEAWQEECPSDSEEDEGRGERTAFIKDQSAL
This is one part of the list. No count for the full screen is at hand.
TEST READOUT: furin cleavage Z-score

{"SEQUENCE DATA": "CALQVLDSHYAGNASASA [HC1399]", "MEASURED NUMBER": 0.634}
{"SEQUENCE DATA": "CALLCRHKRKAGNASASA [FS-1359]", "MEASURED NUMBER": 7.93}
{"SEQUENCE DATA": "CAIEFRHKRKAGNASASA [FS-1535]", "MEASURED NUMBER": -1.35}
{"SEQUENCE DATA": "CARGPRGKGKAGNASASA [FS-1893]", "MEASURED NUMBER": -0.459}
